Test: Example 4 Group B: plasma pharmacokinetics in genotype 1 HCV-infected subjects (LC/MS/MS)
Conditions: human, in vivo, 50 mg single dose, fasted, mean ± SD, read-out: t1/2 of Compound I (converted)
READOUT: half-life

(Q) Field request: half-life | item: CC(C)OC(=O)[C@@H](C)N[P@@](=O)(OC[C@H]1O[C@@H](n2ccc(=O)[nH]c2=O)[C@](C)(Cl)[C@@H]1O)Oc1ccccc1
(A) 1.19 h

---

Assay: Example 4 Group A: plasma pharmacokinetics in healthy volunteers (LC/MS/MS)
Details: human, in vivo, 300 mg, 300 mg single dose, fasted, mean ± SD, read-out: AUC∞ of Compound I
READOUT: AUC(0-inf)
Answer with the figure and its unit, nothing else.

(Q) Field request: AUC(0-inf) | item: CC(C)OC(=O)[C@@H](C)N[P@@](=O)(OC[C@H]1O[C@@H](n2ccc(=O)[nH]c2=O)[C@](C)(Cl)[C@@H]1O)Oc1ccccc1
(A) 1680 ng·h/mL

---

Assay: Example 4 Group B: plasma pharmacokinetics in genotype 1 HCV-infected subjects (LC/MS/MS)
Details: human, in vivo, 50 mg single dose, fasted, mean ± SD, read-out: AUC∞ of Compound I
READOUT: AUC(0-inf) (ng·h/mL)
Answers are plain numbers, in ng·h/mL.

(Q) Field request: AUC(0-inf) | item: CC(C)OC(=O)[C@@H](C)N[P@@](=O)(OC[C@H]1O[C@@H](n2ccc(=O)[nH]c2=O)[C@](C)(Cl)[C@@H]1O)Oc1ccccc1
(A) 197

---

Test: Example 4 Group A: plasma pharmacokinetics in healthy volunteers (LC/MS/MS)
Conditions: human, in vivo, 25 mg, 25 mg single dose, fasted, mean ± SD, read-out: Cmax of Compound I
READOUT: Cmax (ng/mL)
Numbers only, in ng/mL.

(Q) Field request: Cmax | item: CC(C)OC(=O)[C@@H](C)N[P@@](=O)(OC[C@H]1O[C@@H](n2ccc(=O)[nH]c2=O)[C@](C)(Cl)[C@@H]1O)Oc1ccccc1 [Compound I]
(A) 28.8

---

Test: Example 4 Group B: plasma pharmacokinetics in genotype 1 HCV-infected subjects (LC/MS/MS)
Details: human, in vivo, 150 mg single dose, fasted, mean ± SD, read-out: AUC∞ of Compound I
Protocol: Five sequential cohorts of 3 HCV-infected subjects (HCV) per cohort received under fasted conditions open-label Compound I at single ascending doses of 10, 25, 50, 150, and 300 mg (below, “Group B”). […] Plasma samples were obtained up to 120 hours after dosing and the levels of Compound I and its Nucleoside metabolite were measured by using validated LC/MS/MS methodology. […]
READOUT: AUC(0-inf) (ng·h/mL)
Numbers only, in ng·h/mL.

(Q) Field request: AUC(0-inf) | item: CC(C)OC(=O)[C@@H](C)N[P@@](=O)(OC[C@H]1O[C@@H](n2ccc(=O)[nH]c2=O)[C@](C)(Cl)[C@@H]1O)Oc1ccccc1 [Compound I]
(A) 664

---

Assay: Example 4 Group B: plasma pharmacokinetics in genotype 1 HCV-infected subjects (LC/MS/MS)
Details: human, in vivo, 300 mg single dose, fasted, median, read-out: Tmax of Compound I
READOUT: Tmax (h)
Give bare numbers, in h.

(Q) Field request: Tmax | item: CC(C)OC(=O)[C@@H](C)N[P@@](=O)(OC[C@H]1O[C@@H](n2ccc(=O)[nH]c2=O)[C@](C)(Cl)[C@@H]1O)Oc1ccccc1 [Compound I]
(A) 1
